Sourced from patent US20120101110A1

ASSAYED_SYSTEM: human orexin 2 receptors (Homo sapiens, UniProt O43614)
METHOD_SUMMARY: Calcium accumulation in cells (FLIPR), hOx2R
RECORDED_CONDITIONS: cells expressing human orexin 2 receptor; inhibition of orexin A-induced calcium accumulation; Cheng and Prusoff correction
READOUT_NAME: Ki (nM)
Please give a number only; it is taken to be in nM.

{"MOLECULE": "Cc1ccc2[nH]cc(CN3CCCC4(CCN(c5nc(C)cc(C)n5)CC4)C3=O)c2c1 [Example 104]", "ASSAYED_SYSTEM": "human orexin 2 receptors (Homo sapiens, UniProt O43614)", "SCALE_UNIT": "nM", "Ki": 4.8}
{"MOLECULE": "Cc1cnc(-c2cccc(CN3CCCC4(CCN(c5cccc(C#N)n5)CC4)C3=O)c2)o1 [Example 39]", "ASSAYED_SYSTEM": "human orexin 2 receptors (Homo sapiens, UniProt O43614)", "SCALE_UNIT": "nM", "Ki": 29}
{"MOLECULE": "COc1ccnc(N2CCC3(CCCN(Cc4ccccc4-c4nc(C)no4)C3=O)CC2)n1 [Example 114]", "ASSAYED_SYSTEM": "human orexin 2 receptors (Homo sapiens, UniProt O43614)", "SCALE_UNIT": "nM", "Ki": 30}
{"MOLECULE": "COCc1ccc2[nH]cc(CN3CCCC4(CCN(c5nc(C)cc(C)n5)CC4)C3=O)c2c1 [Example 116]", "ASSAYED_SYSTEM": "human orexin 2 receptors (Homo sapiens, UniProt O43614)", "SCALE_UNIT": "nM", "Ki": 0.3}
{"MOLECULE": "COc1cccc(-c2nn(C)nc2CN2CCCC3(CCN(c4nc(C)cc(C)n4)CC3)C2=O)n1 [Example 120]", "ASSAYED_SYSTEM": "human orexin 2 receptors (Homo sapiens, UniProt O43614)", "SCALE_UNIT": "nM", "Ki": 32}

Entry Cc1cc(C)nc(N2CCC3(CCCN(Cc4c[nH]c5ccc(C#N)cc45)C3=O)CC2)n1 [Example 105] — recorded Ki = 3.3

Entry N#Cc1cccc(N2CCC3(CCCN(Cc4cccc(-c5ncccn5)c4)C3=O)CC2)n1 [Example 34] — recorded Ki = 73

Entry CCc1cc(C)nc(N2CCC3(CCCN(Cc4c[nH]c5ccccc45)C3=O)CC2)n1 [Example 111] — recorded Ki = 11

Entry COc1cccc(N2CCC3(CCCN(Cc4c[nH]c5ccccc45)C3=O)CC2)c1 [Example 60] — recorded Ki = 228

---

Collected Ki values appear next to each entry.
ASSAYED_SYSTEM: human orexin 2 receptors (Homo sapiens, UniProt O43614)
Sequence (O43614 1-444): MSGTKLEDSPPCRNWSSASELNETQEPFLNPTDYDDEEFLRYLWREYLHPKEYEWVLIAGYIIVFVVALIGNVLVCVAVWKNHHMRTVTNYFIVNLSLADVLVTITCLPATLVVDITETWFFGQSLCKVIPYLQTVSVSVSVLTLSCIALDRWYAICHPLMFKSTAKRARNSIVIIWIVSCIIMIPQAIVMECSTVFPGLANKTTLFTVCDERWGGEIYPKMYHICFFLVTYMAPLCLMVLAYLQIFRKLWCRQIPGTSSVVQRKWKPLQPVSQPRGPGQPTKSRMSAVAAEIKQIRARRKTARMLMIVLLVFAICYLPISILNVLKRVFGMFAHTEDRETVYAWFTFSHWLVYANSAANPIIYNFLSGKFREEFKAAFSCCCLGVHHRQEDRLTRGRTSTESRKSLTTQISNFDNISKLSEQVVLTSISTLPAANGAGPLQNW
METHOD_SUMMARY: Calcium accumulation in cells (FLIPR), hOx2R
Format: cell-based
RECORDED_CONDITIONS: cells expressing human orexin 2 receptor; inhibition of orexin A-induced calcium accumulation; Cheng and Prusoff correction
Please give a number only; it is taken to be in µM.

{"MOL_SMILES": "COc1cccc(N2CCC3(CCCN(Cc4c[nH]c5ccccc45)C3=O)CC2)n1", "ASSAYED_SYSTEM": "human orexin 2 receptors (Homo sapiens, UniProt O43614)", "Ki, µM": 0.066}
{"MOL_SMILES": "N#Cc1ccnc(N2CCC3(CCCC(=O)N3Cc3cccc4[nH]ccc34)CC2)c1", "ASSAYED_SYSTEM": "human orexin 2 receptors (Homo sapiens, UniProt O43614)", "Ki, µM": 0.017}
{"MOL_SMILES": "Cc1cc(C)nc(N2CCC3(CCCN(Cc4ccccc4-c4ncco4)C3=O)CC2)n1", "ASSAYED_SYSTEM": "human orexin 2 receptors (Homo sapiens, UniProt O43614)", "Ki, µM": 0.016}
{"MOL_SMILES": "Cc1cc(C#N)nc(N2CCC3(CCCN(Cc4cccc(-c5ncccn5)c4)C3=O)CC2)n1", "ASSAYED_SYSTEM": "human orexin 2 receptors (Homo sapiens, UniProt O43614)", "Ki, µM": 0.059}
{"MOL_SMILES": "N#Cc1cc(C#N)nc(N2CCC3(CCCN(Cc4c[nH]c5ccccc45)C3=O)CC2)n1", "ASSAYED_SYSTEM": "human orexin 2 receptors (Homo sapiens, UniProt O43614)", "Ki, µM": 1.13}
{"MOL_SMILES": "Cc1cnc(C)c(N2CCC3(CCCN(Cc4c[nH]c5ccccc45)C3=O)CC2)n1", "ASSAYED_SYSTEM": "human orexin 2 receptors (Homo sapiens, UniProt O43614)", "Ki, µM": 0.545}
{"MOL_SMILES": "Cc1cc(C)nc(N2CCC3(CCCN(Cc4ccccc4-n4nccn4)C3=O)CC2)n1", "ASSAYED_SYSTEM": "human orexin 2 receptors (Homo sapiens, UniProt O43614)", "Ki, µM": 0.086}

human orexin 2 receptors (Homo sapiens, UniProt O43614) data for `Cc1ccc(N2CCC3(CCCN(Cc4c[nH]c5ccccc45)C3=O)CC2)nc1C` ; its Ki: 0.15

---

ASSAYED_SYSTEM: UniProt:O43613
Sequence (O43613 whole entry): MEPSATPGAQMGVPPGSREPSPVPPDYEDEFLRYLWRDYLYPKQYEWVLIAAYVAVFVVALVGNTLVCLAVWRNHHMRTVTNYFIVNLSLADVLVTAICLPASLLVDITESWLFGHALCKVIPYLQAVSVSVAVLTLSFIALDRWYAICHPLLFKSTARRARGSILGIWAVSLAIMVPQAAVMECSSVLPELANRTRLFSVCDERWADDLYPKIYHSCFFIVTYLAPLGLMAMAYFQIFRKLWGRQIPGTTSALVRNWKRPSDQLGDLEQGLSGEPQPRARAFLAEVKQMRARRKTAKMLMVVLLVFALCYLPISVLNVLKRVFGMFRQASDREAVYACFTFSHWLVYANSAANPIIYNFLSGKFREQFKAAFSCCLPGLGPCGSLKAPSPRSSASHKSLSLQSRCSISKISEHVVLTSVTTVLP
METHOD_SUMMARY: Calcium accumulation in cells (FLIPR), hOx1R
READOUT_NAME: pKi
Please note pKi is a logarithmic value: minus log10 of concentration in mol/L. Answer with that number alone.

Recorded results for 8 compounds are shown here.
{"MOL_SMILES": "Cc1cc(C)nc(N2CCC3(CCCN(Cc4ccccc4-c4ncco4)C3=O)CC2)n1", "pKi": 5.85}
{"MOL_SMILES": "Cc1cc(C)nc(N2CCC3(CCCN(Cc4c(-c5ccccc5)noc4C)C3=O)CC2)n1", "pKi": 5.54}
{"MOL_SMILES": "Cc1cc(C)nc(N2CCC3(CCCN(Cc4c[nH]c5ccc(C#N)cc45)C3=O)CC2)n1", "pKi": 6.53}
{"MOL_SMILES": "Cc1nccc(N2CCC3(CCCN(Cc4c[nH]c5ccccc45)C3=O)CC2)n1", "pKi": 5.74}
{"MOL_SMILES": "Cc1cc(C)nc(N2CCC3(CCCN(Cc4ccccc4-c4ccco4)C3=O)CC2)n1", "pKi": 6.07}
{"MOL_SMILES": "COc1ccnc(N2CCC3(CCCN(Cc4ccccc4-c4nc(C)no4)C3=O)CC2)n1", "pKi": 5.81}
{"MOL_SMILES": "Cc1ccc(N2CCC3(CCCN(Cc4c[nH]c5ccccc45)C3=O)CC2)nc1C", "pKi": 5.47}
{"MOL_SMILES": "O=C1N(Cc2c[nH]c3ccccc23)CCCC12CCN(c1nccc(C(F)(F)F)n1)CC2", "pKi": 5.66}

Entry `Cc1cc(C)nc(N2CCC3(CCCN(Cc4nc(C)sc4-c4ccccc4)C3=O)CC2)n1` — recorded pKi = 5.86

Entry `Cn1cc(CN2CCCC3(CCN(c4cncc(Cl)n4)CC3)C2=O)c2ccccc21` — recorded pKi = 5.56

Entry `Cc1cc(C)nc(N2CCC3(CCCN(Cc4nn(C)nc4Br)C3=O)CC2)n1` — recorded pKi = 5.45

Entry `COCc1ccc2[nH]cc(CN3CCCC4(CCN(c5nc(C)cc(C)n5)CC4)C3=O)c2c1` — recorded pKi = 7.48

---

ASSAYED_SYSTEM: human orexin 2 receptors (Homo sapiens)
METHOD_SUMMARY: Radioligand binding assay ([3H]-SB649868 competition), hOx2R
RECORDED_CONDITIONS: competition with about 1 nM [3H]-SB649868; CHO or HEK cell membranes expressing human orexin 2 receptor; read-out: binding hOx2R Kd
READOUT_NAME: Kd (µM)
Please give a number only; it is taken to be in µM.

{"MOL_SMILES": "N#Cc1ccnc(N2CCC3(CCCC(=O)N3Cc3cccc4[nH]ccc34)CC2)c1", "SCALE_UNIT": "µM", "Kd": 0.27}
{"MOL_SMILES": "Cc1cc(C)nc(N2CCC3(CCCN(Cc4c[nH]c5ccc(-n6cccn6)cc45)C3=O)CC2)n1", "SCALE_UNIT": "µM", "Kd": 0.027}
{"MOL_SMILES": "O=C1N(Cc2c[nH]c3ccccc23)CCCC12CCN(c1nccc(Cl)n1)CC2", "SCALE_UNIT": "µM", "Kd": 0.7}
{"MOL_SMILES": "Cc1cc(C)nc(N2CCC3(CCCN(Cc4cccc(-c5ncccn5)c4)C3=O)CC2)c1", "SCALE_UNIT": "µM", "Kd": 0.338}
{"MOL_SMILES": "Cc1cc(C#N)nc(N2CCC3(CCCN(Cc4cccc(-c5ncccn5)c4)C3=O)CC2)n1", "SCALE_UNIT": "µM", "Kd": 0.383}

Entry `Cc1cc(C)nc(N2CCC3(CCCN(Cc4ccccc4-c4ncco4)C3=O)CC2)n1` — recorded Kd = 0.091

Entry `Cc1cncc(N2CCC3(CCCN(Cc4c[nH]c5ccccc45)C3=O)CC2)n1` — recorded Kd = 0.244

Entry `Cc1nc(N2CCC3(CCCN(Cc4c[nH]c5ccccc45)C3=O)CC2)ncc1F` — recorded Kd = 0.059
